// values below are reported pKd
tgt: T1, scHLA-B27-mmH (engineered HLA-B*27 ectodomain in-line fusion protein) (human (HLA-B*2705, beta-2 …))
T1 construct: also called soluble HLA-B*27 fusion protein
protocol text: SPR (Biacore), mAb captured, 25 C, PBS pH 7.2
// pKd here means minus log10 of the molar concentration (mol/L)

Solved cases below.
[
  {
    "binder": "H4H2528P (antibody, V domains shown) VH: QVQLVESGGGVVQPGRSLRLSCAASGFTFSRFGMDWVRQAPGKGLEWVAVISYDGKNKLYADSVKGRFTISRDNSKNTLYLQMNSLRAEDTAVYYCAKEGDNWNFVGDSWGQGTLVTVSS VL: DIQMTQSPSSVSASVGDRVTITCRASQGISARLAWYQQKPGKAPKLLIYAASSLQSGVPSRFSGSGSGTYFTLTISNLQPEDFATYYCQQANSFPYTLGQGTKLEIK",
    "metric": "pKd",
    "assay value": 8.57
  },
  {
    "binder": "H4H2526P (antibody, V domains shown) VH: QVQLVESGGGVVQPGRSLRLSCAASGFTFSRFGMDWVRQAPGKGLEWVAVISYDGKNKLYADSVKGRFTISRDNSKNTLYMQMNSLRAEDTAVYYCAKEGDNWNFVGDSWGQGTLVTVSS VL: DIQMTQSPSSVSASVGDRVTITCRASQDISARLAWYQQKPGKAPKLLIYAASSLQSGVPSRFSGSGSGTDFTLTISSLEPEDFATYYCQQADSFPYTLGQGTKLEIK",
    "metric": "pKd",
    "assay value": 9.12
  },
  {
    "binder": "H4H2524P (antibody, V domains shown) VH: QVQLQESGPGLVKPSQTLSLTCTVSGGSISSDGYYWSWIRQHPGKGLEWIGYIYYSGNTYYNPSLKSRVTISVDTSKNHFSLKLSSVTAADTAVYYCTRDPRGITGTHYFDYWGQGTLVTVSS VL: EIVLTQSPGTLSLSPGERATLSCRTSQSVSSSYLAWYQQKPGQAPRLLIYGASSRATGIPDRFSGSGSGTDFTLTISRLEPEDFAVYYCQQFGTSLFTFGPGTKVDIK",
    "metric": "pKd",
    "assay value": 7.16
  },
  {
    "binder": "H4H2530S (antibody, V domains shown) VH: EVQLVESGPGLVKPSQTLSLTCTVSGGSINSGGSYWSWIRQHPGKGLEWIGYIYSSGNTYYKPSLKSRVTISLDTSKNQFSLKMSSVTAADTAIYYCARDPRGITGTHYFDYWGQGTTVTVSS VL: EIVLTQSPGTLSLSPGERATLSCRTSQSISNKYLAWYQQKPGQAPRLLIYGASTRATGIPDRFSGSGSGTDFTLTISRLEPEDFAVYYCQQFGTSLFTFGPGTKVEIK",
    "metric": "pKd",
    "assay value": 9.18
  }
]

As a next step, examine the binder that follows.
In: Any idea what pKd was measured for H4H2542P (antibody, V domains shown) VH: EVQLVESGGGLVQPGRSLRLSCAASGFTFDDYAMHWVRQGPGKGLEWVSGISWNGRTMDHADSVKGRFTISRDNAKNSLYLQMNSLRNDDTGVYFCAKEGIPVAGTYFHFYGMDVWGQGTTVTVSS VL: EIVMTQSPATLSVSPGERVTLSCRASQSIGNYLAWYQQKPGQAPRLLIYGTSTRATGIPARFSGSGSGTEFTLTFSSLQSEDFAVYYCQQYNHWPLTFGGGTKVEIK ?
Out: 7.28
